Target: CDK2/Cyclin E1 (Homo sapiens (Human))
Assay: biochemical
Details: CDK2_Ki (nM), phosphorylated CDK2/Cyclin E1, 150 μM ATP, Morrison tight-binding fit
Overview of recorded Ki for various compounds
Report as a plain number; the unit nM is understood.

Enquiry: Would you please give the reported Ki of CNS(=O)(=O)N1CCC(Nc2ncc3cc(Cl)c(=O)n([C@@H]4CCC[C@@]4(C)O)c3n2)CC1 (single isomer, unassigned) [Example 126] with CDK2/Cyclin E1 (Homo sapiens (Human))?
Return: 0.2

Enquiry: Report Ki on CDK2/Cyclin E1 (Homo sapiens (Human)) for this entry: CC[C@]1(O)CCC[C@@H]1n1c(=O)c(Cl)cc2cnc(NC3CCN(S(C)(=O)=O)CC3)nc21 (single isomer, unassigned) [Example 196]
Return: 5.72

Enquiry: Fill in Ki for C[C@@H]1[C@H](O)CCC[C@H]1n1c(=O)ccc2cnc(NC3CCN(S(C)(=O)=O)CC3)nc21 (single isomer, unassigned) [Example 221] tested with CDK2/Cyclin E1 (Homo sapiens (Human)).
Return: 0.13

Enquiry: Report measured Ki on CDK2/Cyclin E1 (Homo sapiens (Human)); entry: CC[C@@]1(O)CCC[C@H]1n1c(=O)ccc2cnc(NC3CCN(S(C)(=O)=O)CC3)nc21 (single isomer, unassigned) [Example 193]
Return: 2.55

Enquiry: Please report Ki with CDK2/Cyclin E1 (Homo sapiens (Human)) for item CNS(=O)(=O)N1CCC(Nc2ncc3cc(C)c(=O)n([C@@H]4CCC[C@H]4O)c3n2)CC1 [Example 55] .
Return: 4.66

Enquiry: Write down the reported Ki (system: CDK2/Cyclin E1 (Homo sapiens (Human))) of C[C@@]1(O)CCC[C@H]1n1c(=O)c(C(F)(F)F)cc2cnc(NC3CCN(S(C)(=O)=O)CC3)nc21 [Example 132]
Return: 0.57
